TGT: Cytochrome c (equine (heart), UniProt P00004 2-105)
Sequence (P00004 2-105): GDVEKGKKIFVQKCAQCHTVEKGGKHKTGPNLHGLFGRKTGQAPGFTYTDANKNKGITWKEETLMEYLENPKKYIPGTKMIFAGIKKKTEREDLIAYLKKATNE
PROCEDURE SUMMARY: bead-based affinity chromatography, fluorescence; PBS pH 7.4, room temperature, 1 h; EMSA 500 nM oligo + 200 µM protein, 5% agarose; bead assay with bead-immobilized protein, Alexa488 oligo 1-60 nM (lysozyme) o
Listed binders paired with reported Kd
EXPERIMENTAL ENDPOINT: Kd (µM)

INSERT INTO assay_data (binder, value_units, measurement) VALUES
  ('oligonucleotide 2, Alexa488 (ssDNA) DNA: CGGTCCTCAGATGTGATTCCATCCTTCTTTTGAGCAAACTACCTGTATAACGTAAGTCCGTGTGTGCGAA', 'µM', 1.1),
  ('ATAAATTTAAGACATGAAAAAATAAATTTTTATTTTTTTACGTTTTTATT (ssDNA) [oligonucleotide 1, Alexa488]', 'µM', 1.4);
